- Test system: MOLT-4
- measurement.notes: Cytotoxicity against human MOLT4 cells assessed as cell growth at 100 nM after 48 hrs by sulforhodamine B assay
- Type: functional
- experimental.context: MOLT-4, 48 h, read-out: Activity
quantity: growth at 0.1 µM (%)
One number for each entry, in %.

Reference set, count: 4
COc1cc(C)cc(-c2nn(CC#N)cc2-c2ccnc(-c3ccc(N(C)C)cc3)c2)c1	39
Cc1cc(O)cc(-c2nn(CC#N)cc2-c2ccnc(-c3ccc(Oc4ccccc4)cc3)c2)c1	79
COc1cc(C)cc(-c2c(-c3ccnc(-c4ccc(C(C)=O)cc4)c3)cnn2CC#N)c1	81
COc1cc(C)cc(-c2nn(CC#N)cc2-c2ccc(-c3cccc(C(C)=O)c3)nc2)c1	84

Please give growth at 0.1 µM, item by item, for the list that follows.
1. Cc1cc(O)cc(-c2nn(CC#N)cc2-c2ccnc(-c3ccc(N(C)C)cc3)c2)c1
2. COc1cc(C)cc(-c2c(-c3ccnc(-c4ccc(N(C)C)cc4)c3)cnn2CC#N)c1

Reply text:
1. 89
2. 9
